system_tested: INTS3C (human, UniProt Q68E01-2 514-1042)
Sequence (Q68E01 515-1043): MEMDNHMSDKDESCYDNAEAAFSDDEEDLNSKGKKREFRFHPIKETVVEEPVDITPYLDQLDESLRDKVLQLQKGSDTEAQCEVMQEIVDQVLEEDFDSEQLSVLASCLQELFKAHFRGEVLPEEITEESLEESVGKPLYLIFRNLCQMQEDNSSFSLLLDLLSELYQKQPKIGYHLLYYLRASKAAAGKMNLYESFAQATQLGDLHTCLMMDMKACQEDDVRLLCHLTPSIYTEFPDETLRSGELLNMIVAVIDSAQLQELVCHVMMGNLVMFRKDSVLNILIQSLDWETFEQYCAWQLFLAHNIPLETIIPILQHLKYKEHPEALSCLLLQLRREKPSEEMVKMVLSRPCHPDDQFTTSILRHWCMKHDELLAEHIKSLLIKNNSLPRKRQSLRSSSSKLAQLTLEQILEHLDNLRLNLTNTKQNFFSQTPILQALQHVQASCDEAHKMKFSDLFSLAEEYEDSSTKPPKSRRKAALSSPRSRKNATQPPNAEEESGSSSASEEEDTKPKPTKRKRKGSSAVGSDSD
test_description: EMSA; EMSA: 20 mM HEPES pH 7.3, 100 mM KCl, 1 mM MgCl2, 1 mg/ml BSA, 1 mM DTT, 6% glycerol, 0.5 nM 32P substrate, 30 min on ice; 5% native PAGE, 1x TBE, 4°C
test_parameters: protein: recombinant; tags: His (pET28a); label: 5'-32P
measurement_kind: pKd
To interpret pKd, take it as minus log10 of a concentration measured in moles per litre.

Recorded pKd for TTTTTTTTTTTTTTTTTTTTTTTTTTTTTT (ssDNA) [dT30] , please? 5.14
